Target system: T1, Prostate specific membrane antigen (PSMA) (human, UniProt Q04609 1-750)
T1 construct: whole, on cells; The background says that PSMA is a homodimer when enzymatically active; also called glutamate carboxypeptidase II; GCPII
T1 sequence (Q04609 whole entry): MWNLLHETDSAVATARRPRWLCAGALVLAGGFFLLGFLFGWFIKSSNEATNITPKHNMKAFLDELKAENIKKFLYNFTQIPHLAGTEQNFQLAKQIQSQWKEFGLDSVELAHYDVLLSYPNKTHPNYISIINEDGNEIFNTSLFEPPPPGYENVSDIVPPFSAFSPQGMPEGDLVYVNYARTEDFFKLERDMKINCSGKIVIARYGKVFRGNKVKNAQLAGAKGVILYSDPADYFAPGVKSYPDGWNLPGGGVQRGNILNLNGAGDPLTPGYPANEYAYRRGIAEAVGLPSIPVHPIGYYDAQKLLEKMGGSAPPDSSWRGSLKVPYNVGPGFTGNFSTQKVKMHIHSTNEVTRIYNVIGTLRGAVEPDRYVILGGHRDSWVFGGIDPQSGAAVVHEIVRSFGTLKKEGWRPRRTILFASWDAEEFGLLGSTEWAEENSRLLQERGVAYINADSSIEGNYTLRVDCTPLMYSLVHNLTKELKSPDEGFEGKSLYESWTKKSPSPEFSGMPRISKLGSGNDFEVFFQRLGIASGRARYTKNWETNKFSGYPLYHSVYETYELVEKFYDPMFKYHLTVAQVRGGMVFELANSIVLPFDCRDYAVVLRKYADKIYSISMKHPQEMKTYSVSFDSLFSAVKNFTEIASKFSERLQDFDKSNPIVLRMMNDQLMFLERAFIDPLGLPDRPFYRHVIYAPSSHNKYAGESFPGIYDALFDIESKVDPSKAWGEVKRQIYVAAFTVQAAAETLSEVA
Experiment description: flow cytometry on LNCAP cells, FITC anti-human IgG
Friendly reminder: EC50 below 0.2 µg/mL is 1, at or above is 0.

Please review the entries below; each comes with its answer.
Binder: 3F11-var 13 (antibody, human IgG1, kappa, V domains shown, Expressed from pXC-IgG1zadeltaK and pXC-Kappa vectors) VH: QVQLVQSGAEVKKPGASVKVSCKASGYTFTYFDINWLRQAPGQGLEWMGGISPGDGNTNYNENFKGRVTLTIDKSTSTAYMELSSLRSEDTAVYFCARDGNFPYYAMDSWGQGTLVTVSS VL: DIVMTQSPLSLPVTPGEPASISCRSSQSLVHSSGQTYLHWYQQKPGQSPQLLIYTVSNRASGVPDRFSGSGSGTDFTLKISRVEAEDVGTYYCSQSTHVPTFGGGTKVEIKR
Assigned category: 0
//
Binder: 3F11-var 7 (antibody, human IgG1, kappa, V domains shown, Expressed from pXC-IgG1zadeltaK and pXC-Kappa vectors) VH: QVQLVQSGAEVKKPGASVKVSCKASGYTFTYFDINWLRQAPGQGLEWMGGISPGDGNVNYAQKFQGRVTLTIDTSTSTAYMELSSLRSEDTAVYYCARDGNFPYYAMDSWGQGTLVTVSS VL: DIVMTQSPLSLPVTPGEPASISCRSSQSLVHSNGQTYLHWYLQKPGQSPQLLIYTVSNRFSGVPDRFSGSGSGTDFTLKISRVEAEDVGVYYCSQSTHVPTFGGGTKVEIKR
Assigned category: 1
//
Binder: 3F11-var 1 (antibody, human IgG1, kappa, V domains shown, Expressed from pXC-IgG1zadeltaK and pXC-Kappa vectors) VH: QVQLVQSGAEVKKPGASVKVSCKASGYTFTYFDINWLRQAPGQGLEWMGGISPGDGNTNYNENFKGRVTLTIDKSTSTAYMELSSLRSEDTAVYFCARDGNFPYYAMDSWGQGTLVTVSS VL: DIVMTQSPLSLPVTPGEPASISCRSSQSLVHSNGNTYLHWFLQKPGQSPQLLIYTVSNRFSGVPDRFSGSGSGTDFTLKISRVEAEDVGVYFCSQSTHVPTFGGGTKVEIKR
Assigned category: 0

Please examine the following record next.
Input 3F11-var 11 (antibody, human IgG1, kappa, V domains shown, Expressed from pXC-IgG1zadeltaK and pXC-Kappa vectors) VH: QVQLVQSGAEVKKPGASVKVSCKASGYTFTYFDINWLRQAPGQGLEWMGGISPGDGNVNYAQKFQGRVTLTIDTSTSTAYMELSSLRSEDTAVYYCARDGNFPYYAMDSWGQGTLVTVSS VL: DIVMTQSPLSLPVTPGEPASISCRSSQSLVHSSGQTYLHWYLQKPGQSPQLLIYTVSNRFSGVPDRFSGSGSGTDFTLKISRVEAEDVGVYYCSQSTHVPTFGGGTKVEIKR ; condition: EC50 strictly below 0.2 µg/mL. Does it hold?
0
